Test system: MS2 coat protein
Test: apparent Kd, MS2 coat protein; higher = weaker binding; RNA-MaP array
Conditions: ligand present: flavin mononucleotide; designed as: OFF switch for flavin mononucleotide
Would you mind telling me the reported apparent Kd of each entry?
One number for each entry, in nM.

Provide apparent Kd values for the following items, in order.
1. GUCAACGAAGGAUAUACAGGGAUACCCGUCGAGUACGGAGCACAUGAGGAUCACCCAUGUAGAAGGUCGGUGUG
2. AAUUCAAGGGUUAGGAUAUUCAAUAUAAAAUACUAGAAGAAGGAACAUGAGGAUCACCCAUGUUAUAGUGAUCU
3. GCAUUAGAGGACACAUGAGGAUCACCCAUGUGCAUCAUCAGAUAGGAUAUCUUAACAGAAAUUUGAGAGAAGGAUCGUGUUCGG
4. UGUAACGAAGGAUAUACAAGAAGACAAGUGCGGCAGUACGUACAUGAGGAUCACCCAUGUAGAAGGUCGAAGGC
5. CUGGGCCAAUAGAAGGGCGGGAGCGCAGGUGAUCAAACCUAUUACAUGAGGAUCACCCAUGUAACGCAGGAUAUAUCGGUUUUA
6. CCUAACUGAGGAUAUGACAACUGGCACAUGAGGAUCACCCAUGUAGACUCAUUCGAGUUAUCAGAAGGCAGAAUAU
7. CCGUUUCGGACAAGCAACACAUGAGGAUCACCCAUGUCAAUCUAGGAUAUCAUAAGGAUAUAACGUGAGAAGGAGAGCGACAGG

142
32.1
7.53
7.66
48
18.8
24.4

Provide apparent Kd values for the following items, in order.
1. UCUCUCGAUGUGCAUUGACAUGAGGAUCACCCAUGUACUGCCUAGGAUAUAACUGGCCCGAUCAGUUAGAAGGAGGGAGAAUAG
2. CCUUCGUCGAAUGUGUAACAUGAGGAUCACCCAUGUAGUCUGGAGGAUAUCUAACACAGCUGAAAAGAGAAGGCCAGGUCUGCA
3. AAGAGCAGAGGAUAUACAUAGGCAUCAGUUGAAGCAGCUGAACAUGAGGAUCACCCAUGUAGAAGGCUGACAAA
4. CGUAUGUGAGGAUAUCCGAAACUAUUUACCAAAUUAUAAGUGGAGAAGGCACAUGAGGAUCACCCAUGUGAUGG
5. CAAGGGAAAGUCAGGAUAUGCACAACCGACCGUUUGCAGAAGGGACAUGAGGAUCACCCAUGUGUGGAACUGUU
6. GUAUGGGCGUAACAUGAGGAUCACCCAUGUCCGAAUGCGAUGAGAAGGCCACAUAGUUGGCUGAUGGAGGAUAUCAAAGUAUAU
7. AUAAACCUAGGAUAUACCAGGACGAUUCAACAAGAAAACGAACAUGAGGAUCACCCAUGUAGAAGGAGGGAAAG

1: 6.51; 2: 48.6; 3: 7.29; 4: 24.6; 5: 21.4; 6: 70.8; 7: 25.3

Provide apparent Kd values for the following items, in order.
1. GGUCGUCUAGUUAGGAUAUCAUUAUUAGAUUAAAUUGAGAAGGAACAUGAGGAUCACCCAUGUCGACAACUAUC
2. UGAUUGAGCGGAGGAUAUCUUAAUGAGCACGUAAGAGAAGGCCGGUGGCUCCUAUAUGCAGCGCACAUGAGGAUCACCCAUGUC

1. 8.12
2. 91.6

Provide apparent Kd values for the following items, in order.
1. AGUCCCAGGGAGAAGGACAUGAUCACAUGAGGAUCACCCAUGUGAGCCAUUUUAUGUAGGGACGUGUAGGAUAUCCGGACAUGG
2. ACGAAGUGAGGAUAUACAUGAGGAUCACCCAUGUGCCCAGGGUGUGAUUGUAAAGAACGUAGAAGGCACAAUAG
3. ACUAAUCAGCAACAUGAGGAUCACCCAUGUGGGCCGUCCGGCAGAAGGCCUACGCACUUAGACUAGGAGGAUAUGCAAGCAACU
4. GGCCUUGUUGUUAUAGGACAUGAGGAUCACCCAUGUAUAUGUAAGGAUAUGAAUCGUAAGACGCAUCAGAAGGUACAGUACUGG
5. GUUUACAAUGUCAGGAUAUCACAGCGUACAAAUGUUGAGAAGGGACAUGAGGAUCACCCAUGUACACACCUCUU
6. UCCAAAUUCCAGAAGGCGUUUAAGCGAGGGUAGGGCGUGCAACAUGAGGAUCACCCAUGUAAUCACGAGGAUAUGGGAGGCACC
7. GUGAUCAUCCGAGGAUAUUUUUCAUAGGCAUAAGGGGACAUGAGGAUCACCCAUGUAAACACCAUAAAGAAGGCGGGGCAGACC
8. UGUACAACAUGAGGAUCACCCAUGUGGCACCUCUGUCGAUUCGAGGAUAUCAGGUAAAGUGGCUGUGAGAAGGCGAAAGUUCCG

[6.11, 132, 18.4, 55.8, 9.29, 8.34, 15.3, 50.3]

Provide apparent Kd values for the following items, in order.
1. GUAACACUGUCAUCGCCGACAUGAGGAUCACCCAUGUGUAAGAGAAGGACCGAGACCGGGAAAUGGUAGGAUAUCUGUGGGUAG
2. UGUAUGUUAGGAUAUAGUGUGACACUGUAAUUGCUCGGCACCUAGAAGGAACAUGAGGAUCACCCAUGUGGUGG
3. UUAGAGAGAGGAUAUACAGAGUAUCAACUCGGCGGACAAGAACAUGAGGAUCACCCAUGUAGAAGGCUCUCAGA
4. AGCUCGGCAGGAUAUACAUGAGGAUCACCCAUGUUUGCAGGCGCGCCGGUAGACUUUUGUAGAAGGGCCGUAUA
5. AGAAAACAUGAGGAUCACCCAUGUAAGGAUAUACAAACUCCAGAAAUAAAAGGAUUAAGAAGAAGGUACAUAAA

84.5
244
67.1
113
9.2
